B1: tRNA (parent)
chain: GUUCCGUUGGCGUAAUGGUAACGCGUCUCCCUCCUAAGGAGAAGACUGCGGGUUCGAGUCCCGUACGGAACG

- Variants of: B1
- Assay notes: yeast fitness, log relative to wild type (ln ratio); higher = fitter; tRNA-Arg(CCU), competitive growth, 37 C, 1 M NaCl
Consider the following variants; for each one, report its yeast fitness (ln).
Answer with the value's number alone.

### Prompt Look up yeast fitness (ln) of G6A C46U C66U A69G C71U and report it.
### Response -0.0544

### Prompt Look up yeast fitness (ln) of U2G C27U A43C C46U C66A A69G A70G and report it.
### Response -0.21

### Prompt Look up yeast fitness (ln) of U2C G6U C27U A70G and report it.
### Response -0.185

### Prompt Look up yeast fitness (ln) of U2G G6A C27U A43C C66U A70U and report it.
### Response -0.0534

### Prompt Look up yeast fitness (ln) of G6A C27U A70G and report it.
### Response -0.148

### Prompt Look up yeast fitness (ln) of G1A C27U A69G and report it.
### Response -0.295
